Reported T/C values for the following molecules.
System: CD2F1 mice, L1210 leukemia ip, survival T/C
Test: NCI In Vivo Anticancer Drug Screen. Data for tumor model L1210 Leukemia (intraperitoneal) in CD2F1 (CDF1) mice
Conditions: endpoint: mean survival time; dose: 75.0 mg/kg/injection; schedule: Q01DX001 (ip); vehicle: other; higher = longer survival
Toxic doses and inconclusive results are not listed.
valueKind: T/C

molecule	reading
CC12CCC(C(=O)C1)C1(C)CCCC(=O)C21 (stereo unspecified)	97 % of control
CC(=O)C1=C(O)C(CSCc2ccccc2)N(C)C1=O (stereo unspecified)	95 % of control
CC1CC2C3(C1)CC(C(=O)OC3=O)C2(C)C (stereo unspecified)	94 % of control
CC(=O)Nc1cc(CN2CCCCC2)c(O)c2ncccc12	102 % of control
CN(N=O)C(=O)N[C@@H](C=O)[C@@H](O)[C@H](O)[C@H](O)CO	98 % of control
O=P1(Oc2ccccc2)NCC(Br)CO1 (stereo unspecified)	105 % of control

====

Reported T/C values for the following molecules.
Tested on: CD2F1 mice, L1210 leukemia ip, survival T/C
Assay: NCI In Vivo Anticancer Drug Screen. Data for tumor model L1210 Leukemia (intraperitoneal) in CD2F1 (CDF1) mice
Settings: endpoint: mean survival time; dose: 25.0 mg/kg/injection; schedule: Q04DX002 (ip); vehicle: saline with Tween-80; higher = longer survival
Description: The antitumor activity of compounds was measured in mice bearing transplantable tumors. Survival or tumor size were measured and the results are expressed as the measurement made in the treated group (T) divided by the measurement made in the vehicle treated control group (C). The tumor model used in this assay is L1210 Leukemia (intraperitoneal) in CD2F1 (CDF1) mice
Inconclusive results and toxic doses are left out.
valueKind: T/C

molecule	assayTarget	valueKind	reading
N.N.N.N.O=C([O-])C([O-])C(O)C(=O)[O-].O=[N+]([O-])[O-].[Co+3] (stereo not given)	CD2F1 mice, L1210 leukemia ip, survival T/C	T/C	104 % of control
CC(=O)OC1CCC2(C)C(CCC3(C)C2CCC2C4C5OC(=O)C4(CCC5(C)C)CCC23C)C1(C)C (stereo not given)	CD2F1 mice, L1210 leukemia ip, survival T/C	T/C	100 % of control
COc1cc(Cl)ccc1NC(=O)Nc1ccccc1C	CD2F1 mice, L1210 leukemia ip, survival T/C	T/C	90 % of control
NC(=O)c1ccc(OC(F)(F)C(F)Cl)cc1OC(F)(F)C(F)Cl (stereo not given)	CD2F1 mice, L1210 leukemia ip, survival T/C	T/C	96 % of control
CCCCCCCCCCCCOP(OCC)OCCCCCCCCCCCC	CD2F1 mice, L1210 leukemia ip, survival T/C	T/C	104 % of control

====

Reported T/C values for the following molecules.
Test system: CD2F1 mice, L1210 leukemia ip, survival T/C
Test: NCI In Vivo Anticancer Drug Screen. Data for tumor model L1210 Leukemia (intraperitoneal) in CD2F1 (CDF1) mice
Details: endpoint: mean survival time; dose: 400.0 mg/kg/injection; schedule: Q01DX001 (ip); vehicle: saline; higher = longer survival
Toxic doses and inconclusive results are not listed.

molecule	T/C
CC(C)(C)CC1(C)NC(=O)NC1=O (centres undefined)	100 % of control
O=C(O)c1cc(-c2ccc(Cl)cc2)nc2c(Cl)cc(Cl)cc12	100 % of control
CCOC(C=O)OCC	103 % of control
COC1OCC(C(C)=O)C(O)C1O (centres undefined)	95 % of control
CC=C(C(=O)OCC)C(=O)OCC	107 % of control
O=C(Nc1ccc(S(=O)(=O)F)cc1)c1ccc([N+](=O)[O-])cc1	100 % of control
Brc1cnc2n[nH]nc2c1	97 % of control
c1ccc(-c2nc(-c3ccccc3)n3nc4c(c3c2-c2ccccc2)CCCCCC4)cc1	87 % of control
CC(=O)NC(C)NC(C)=O	103 % of control
CCOC(=O)CSc1ccccc1	100 % of control
CC12CCCC(CCCO)(C1)NC(=O)C2 (centres undefined)	101 % of control
COC1OC(CO)C(NC(N)=O)C1O (centres undefined)	95 % of control
COc1cc2cccc(OC)c(=O)c2c(O)c1OC	101 % of control
CNC1(C(=O)c2ccccc2)CC2CCC1C2 (centres undefined)	98 % of control
CN=C(N)N(C)C	95 % of control
CC1(C)NC(=O)NC1=O	107 % of control
O=CC(O)C(O)C(O)CO (centres undefined)	98 % of control
Cc1cc(=O)[nH]c2[nH]c(=O)ccc12	96 % of control
O=P(OCCCl)(OCCCl)C(Cl)(Cl)Cl	103 % of control

====

Test system: CD2F1 mice, L1210 leukemia ip, survival T/C
Assay: NCI In Vivo Anticancer Drug Screen. Data for tumor model L1210 Leukemia (intraperitoneal) in CD2F1 (CDF1) mice
Details: endpoint: mean survival time; dose: 400.0 mg/kg/injection; schedule: Q04DX003 (ip); vehicle: saline
Toxic doses and inconclusive results are not listed. Rule for the calls: active = survival T/C of 150% or more; inactive = T/C below 125% in these data.
Labels: active, inactive

molecule	group
OCC(O)C(O)C(O)C(O)CO (configuration not stated)	inactive
O=C(Nc1ccc(S(=O)(=O)F)c(Cl)c1)Oc1ccccc1	inactive
CCCCn1cnc2c(=S)nc[nH]c21	active
CCC(Cc1ccccc1)C(=O)O (configuration not stated)	inactive
CN(C)C(C)(C)P(=O)(O)O	inactive
CC1=C(/C=C/C(O)CC(O)(C(F)(F)F)C(F)(F)F)C(C)(C)CCC1 (configuration not stated)	inactive
OC1CCCC2OC12 (configuration not stated)	inactive

====

Test system: CD2F1 mice, L1210 leukemia ip, survival T/C
Assay: NCI In Vivo Anticancer Drug Screen. Data for tumor model L1210 Leukemia (intraperitoneal) in CD2F1 (CDF1) mice
Conditions: endpoint: mean survival time; dose: 100.0 mg/kg/injection; schedule: Q04DX003 (ip); vehicle: saline with Tween-80; higher = longer survival
Inconclusive results and toxic doses are left out.
Reported T/C values for the following molecules.

molecule	assayTarget	T/C
c1cc(N2CCCC2)cc(N2CCCC2)c1	CD2F1 mice, L1210 leukemia ip, survival T/C	102 % of control
CC(=O)COc1ccccc1NC(C)=O	CD2F1 mice, L1210 leukemia ip, survival T/C	91 % of control
CCCCCCC#CC(=O)OC	CD2F1 mice, L1210 leukemia ip, survival T/C	96 % of control
Nc1cc2c(cc1Br)-c1ccccc1C2Br (centres undefined)	CD2F1 mice, L1210 leukemia ip, survival T/C	94 % of control
CCCCOP(=O)(NCCOC)OCCCC	CD2F1 mice, L1210 leukemia ip, survival T/C	101 % of control
COc1ccc(NC(=O)C(Cl)Cl)ccc1=O	CD2F1 mice, L1210 leukemia ip, survival T/C	97 % of control
CCOC(=O)Nc1ccc(C(=O)O)c(O)c1	CD2F1 mice, L1210 leukemia ip, survival T/C	96 % of control
Nc1ccc(CCCCc2ccc(Cl)c(S(=O)(=O)F)c2)c(Cl)c1	CD2F1 mice, L1210 leukemia ip, survival T/C	95 % of control
CC1CCCNC1 (centres undefined)	CD2F1 mice, L1210 leukemia ip, survival T/C	97 % of control
O=C1CCSc2ccccc21	CD2F1 mice, L1210 leukemia ip, survival T/C	104 % of control
CC1(C)SC(C(NC(=O)COc2ccccc2)C(=O)O)NC1C(=O)O (centres undefined)	CD2F1 mice, L1210 leukemia ip, survival T/C	97 % of control
CCCCCCCCC(C(O)c1ccccc1)C(O)(C(F)(F)F)C(F)(F)F (centres undefined)	CD2F1 mice, L1210 leukemia ip, survival T/C	98 % of control
S=P(Cc1ccccc1)(c1ccccc1)c1ccccc1	CD2F1 mice, L1210 leukemia ip, survival T/C	88 % of control
N/C(=N\N=C(c1ccccc1)c1ccccc1)N[N+](=O)[O-]	CD2F1 mice, L1210 leukemia ip, survival T/C	97 % of control
Cc1ccc(C(O)(c2ccccc2)c2ccccc2C(=O)Nc2ccccc2)cc1 (centres undefined)	CD2F1 mice, L1210 leukemia ip, survival T/C	88 % of control
OC(CCl)Cc1ccccc1 (centres undefined)	CD2F1 mice, L1210 leukemia ip, survival T/C	95 % of control
COc1c(/C=C/CO)cc2c(c1OC)OCO2	CD2F1 mice, L1210 leukemia ip, survival T/C	95 % of control
NC(CS/C=C\C(=O)O)C(=O)O (centres undefined)	CD2F1 mice, L1210 leukemia ip, survival T/C	101 % of control
BrCC(Br)c1ccccc1 (centres undefined)	CD2F1 mice, L1210 leukemia ip, survival T/C	100 % of control
CCC(=O)Nc1ccc(C)c(Cl)c1	CD2F1 mice, L1210 leukemia ip, survival T/C	96 % of control
CN(C)CC1CCCCC1OC(=O)c1ccccc1 (centres undefined)	CD2F1 mice, L1210 leukemia ip, survival T/C	97 % of control
O=C(OCc1ccccc1)C(Cl)(Cl)Cl	CD2F1 mice, L1210 leukemia ip, survival T/C	107 % of control
O=C(CCO)CC(=O)CCc1ccccc1Cl	CD2F1 mice, L1210 leukemia ip, survival T/C	97 % of control
CN(C)S(=O)(=O)C(C)(C)c1ccccc1	CD2F1 mice, L1210 leukemia ip, survival T/C	94 % of control
COc1ccc2c(c1)CCN1C2CCN2CCCC21 (centres undefined)	CD2F1 mice, L1210 leukemia ip, survival T/C	98 % of control
OC(Cc1ccccn1)c1ccccc1 (centres undefined)	CD2F1 mice, L1210 leukemia ip, survival T/C	95 % of control
O=C1OC(=O)C2C3C=CC(C3)C12 (centres undefined)	CD2F1 mice, L1210 leukemia ip, survival T/C	101 % of control
O=S(=O)(C1CCCCC1)N1N=NC2CCCCC21 (centres undefined)	CD2F1 mice, L1210 leukemia ip, survival T/C	100 % of control
Cc1nc(SCc2ccccc2)[nH]c(=O)c1CCO	CD2F1 mice, L1210 leukemia ip, survival T/C	96 % of control
